- Test system: LOX IMVI
- assay-remarks: NCI tumour cell line growth inhibition, 48 h
Calls of active or inactive are those of the source. Rule as the data show it: active = GI50 up to about 1.1 µM and inactive = higher.
experimental-endpoint: GI50

Go through the list and state GI50 for each entry.
1. C=CCOn1c(C=C)nc2ccc(C)cc21
2. COc1cccc(/C=C/C(=O)c2sc(C(N)=S)nc2C)c1O
3. CCOC(=O)N/N=C(/N)Cc1ccccc1

## Output
["12.8 µM (inactive)", "22.4 µM (inactive)", "> 100 µM (inactive)"]

* * *

- Tested on: CAKI-1
- assay-remarks: NCI tumour cell line growth inhibition, 48 h
Calls of active or inactive are those of the source. Rule as the data show it: active = GI50 up to about 1.1 µM and inactive = higher.
API: response.call in active, inactive

compound	qualitative-label
C=C(Br)CN(C)CC(=C)Br	inactive
C=C1C(=O)OC2C1CCC(=C)C1CC(O)C(=C)C12 (centres undefined)	inactive

## Input Which outcome did this test record for the compound COC1/C=C(C)/C=C/C(C)/C=C/C(=O)OC(/C(C)=C/C=C(\C)CNC(=O)[C@H](CO)NC=O)C(C)/C=C/C=C/C(OC)CC/C=C(C)/C=C/C1 (some centres undefined) ?
## Output active

## Input Which outcome did this test record for the compound COC(=O)c1c(O)ccc2c1C1(Cc3ccccc3C1=O)C(O)O2 (centres undefined) ?
## Output inactive

## Input Which outcome did this test record for the compound CC1(C)CC(C#Cc2ccccc2)CC(C)(C)N1O ?
## Output inactive

## Input Which outcome did this test record for the compound C=CCOn1c(C=C)nc2ccc(C)cc21 ?
## Output inactive

## Input Which outcome did this test record for the compound CC(CO)(CO)N1C(=O)C2C3C=CC(C3)C2C1=O (centres undefined) ?
## Output inactive

## Input Which outcome did this test record for the compound CC(ON1[C@](C)(c2ccccc2)CC[C@@]1(C)c1ccccc1)c1ccccc1 (some centres undefined) ?
## Output inactive

## Input Which outcome did this test record for the compound CC(C)/C(=N\[N+](C)(C)C)c1ccccc1 ?
## Output inactive

## Input Which outcome did this test record for the compound CCc1c(Cc2[nH]c(Cc3[nH]c(C=O)c(C)c3CC)c(CC)c2CC)[nH]c(C=O)c1C ?
## Output inactive

## Input Which outcome did this test record for the compound CC1(C)C2CCC1(C)[C@H](O)[C@H]2Nc1cc(C(F)(F)F)cc(C(F)(F)F)c1 (some centres undefined) ?
## Output inactive

* * *

- Test system: HOP-92
- assay-remarks: NCI tumour cell line growth inhibition, 48 h
The source made the active and inactive calls. No stated cut-off is given here; in the data, active = GI50 up to about 1.1 µM and inactive = higher.
API: response.call in active, inactive

// known answers, use as guide
COc1ccc(OC)c(NS(=O)(=O)c2ccc3nc(C)n(NS(=O)(=O)c4cc(OC)ccc4OC)c(=O)c3c2)c1 inactive
Oc1cc(Cl)cc2cc(Br)cnc12 inactive
Cc1n[nH]c(=O)n1/N=C\CC/C=N\n1c(C)n[nH]c1=O inactive
CC(=O)C(=[N+]=[N-])C(=O)OCCOC(=O)C(=[N+]=[N-])C(C)=O active

## Input Which outcome did this test record for the molecule COc1nc(N=P(c2ccccc2)(c2ccccc2)c2ccccc2)cc(=O)[nH]1 ?
## Output inactive

* * *

- Test system: LOX IMVI
- assay-remarks: NCI tumour cell line growth inhibition, 48 h
Activity calls are given as the source filed them. Cut-off read from the data, not from the text of the source: active = GI50 up to about 1.1 µM and inactive = higher.
experimental-endpoint: GI50

Illustrative cases are given below, each with its answer.
compound	GI50
CC1=C(C(=O)Nc2cccc(C(F)(F)F)c2)C(c2ccc(O)cc2)C(C(=O)Nc2cccc(C(F)(F)F)c2)=C(C)N1	15.6 µM (inactive)
COC(=O)[C@]12CC[C@H]3CN(C(=O)OCc4ccccc4)[C@H]([C@H]31)[C@H](c1ccccc1)N2	> 100 µM (inactive)
Cc1ccc(C2[C@H]3C(=O)N(c4ccc(Cc5ccc(N6C(=O)[C@@H]7ON(c8ccccc8)C(c8ccc(C)cc8)[C@@H]7C6=O)cc5)cc4)C(=O)[C@H]3ON2c2ccccc2)cc1 (stereo partly specified)	> 100 µM (inactive)
O=C(O)[C@@H]1[C@H](C(=O)O)[C@H](C(=O)O)C[C@@H]1C(=O)O	> 100 µM (inactive)
O=c1[nH]nc2ccccc2c1Cc1ccccc1	> 100 µM (inactive)

Go through the list and state GI50 for each entry.
1. COc1ccc2oc(-c3cccnc3)cc(=O)c2c1
2. CC(C)C1=CC2=C(C(=O)C1=O)C13CCCC(C)(C)C1CC2OC3=O (stereo unspecified)
3. CC(=O)O[C@]12CCCCC1C1(O)C(O)CCCC[C@H]12 (stereo partly specified)
4. C[As](C)SCC(NC(=O)CCC(N)C(=O)O)C(=O)NCC(=O)O.c1ccncc1 (stereo unspecified)
5. N#Cc1ccc(/C=N/C23CC4CC(CC(C4)C2)C3)cc1
6. CNC(=O)[C@H](Cc1ccccc1)NC(=O)N(CCC#N)CCN(C(=O)N[C@@H](Cc1ccccc1)C(=O)OC)c1ccccc1
7. COP(=O)(CC(=O)C1OC(OCc2ccccc2)C(OCc2ccccc2)C(OCc2ccccc2)C1OCc1ccccc1)OC (stereo unspecified)

## Output
47.5 µM (inactive)
20.1 µM (inactive)
> 100 µM (inactive)
0.18 µM (active)
76.6 µM (inactive)
> 100 µM (inactive)
11 µM (inactive)

Go through the list and state GI50 for each entry.
1. O=C1c2ccccc2C(=O)c2sc(Nc3ccc([N+](=O)[O-])cc3)nc21
2. CCC1(CN(C)C)CC/C(=C\c2ccc3c(c2)OCO3)C1=O (stereo unspecified)
3. CC1CC/C(=C\c2ccc(F)cc2)C2=C1C(c1ccc(F)cc1)n1c(s/c(=C\c3ccc(Cl)cc3)c1=O)=N2 (stereo unspecified)
4. Cc1cc(NS(=O)(=O)c2ccc(Nc3c4ccccc4nc4c(C(=O)NCCN(C)C)cccc34)cc2)no1
5. CCC1C(=O)C[C@H]2[C@@H]3C(O)CC4=CC(=O)CC[C@]4(C)[C@H]3CC[C@]12C (stereo partly specified)
6. Cc1c(S(=O)(=O)/N=C(\NN)Nc2ccc(Cl)cc2)sc2ccc(Cl)cc12
7. CCOC(=O)c1nc2ccc(Cl)cc2c2c1CCO2
8. CC1CCC(=O)C(C(O)CC2CC(=O)N(c3ccccc3)C(=O)C2)C1 (stereo unspecified)

## Output
["2.03 µM (inactive)", "> 100 µM (inactive)", "> 100 µM (inactive)", "1.35 µM (inactive)", "> 50 µM (inactive)", "18.6 µM (inactive)", "59.6 µM (inactive)", "> 100 µM (inactive)"]

Go through the list and state GI50 for each entry.
1. COc1cc(/N=C\N(C)C)c2ncccc2c1
2. COCCCNC(=O)C1=C(C)NC(C)=C(C(=O)NCCCOC)C1
3. N#CCCOc1cccc(C2(N3CCCCC3)CCCCC2)c1

## Output
["44.4 µM (inactive)", "> 100 µM (inactive)", "> 100 µM (inactive)"]

Go through the list and state GI50 for each entry.
1. CCCNC(=O)Cn1c(C)cc2ccccc21
2. CN(C)CCCN1C(=O)N(CCCN(C)C)c2c3cc(O)ccc3nc3c([N+](=O)[O-])ccc1c23
3. COc1ccc2c(c1)O[C@H]1c3ccc(O)cc3OC[C@@H]21

## Output
1. > 100 µM (inactive)
2. 10.4 µM (inactive)
3. 13 µM (inactive)

* * *

- System: Hs-578T
- assay-remarks: NCI tumour cell line growth inhibition, 48 h
The source made the active and inactive calls. Rule as the data show it: active = GI50 up to about 1.1 µM and inactive = higher.
API: response.call in active, inactive

compound	study-system	qualitative-label
O=C(c1ccccc1)c1c(-c2ccccc2)[nH]n(-c2ccc([N+](=O)[O-])cc2)c(=O)c1=O	Hs-578T	active
COC(=O)C1(F)C(=O)NC(=O)NC1O (stereo not drawn)	Hs-578T	inactive

We next turn to a different compound, shown below.
## Input Which outcome did this test record for the compound N#CC(C#N)=C1C(C#N)=C(N)NC12OCCO2 ?
## Output inactive

* * *

- System: DU-145
- assay-remarks: NCI tumour cell line growth inhibition, 48 h
Calls of active or inactive are those of the source. Rule as the data show it: active = GI50 up to about 1.1 µM and inactive = higher.
I'd be grateful if you could share measured GI50 for these entries.

compound	GI50
CCOC(=O)C1=COC(C)(C)CC1=O	> 100 µM (inactive)
COc1ccc(-c2oc3cc(-c4cc5oc(-c6ccc(OC)cc6)c(-c6ccc(OC)cc6)c5cc4OC)c(OC)cc3c2-c2ccc(OC)cc2)cc1	> 100 µM (inactive)

Go through the list and state GI50 for each entry.
1. Cc1cccc(C(=O)O)c1CC1NCCC2c3ccccc3NC12 (stereo unspecified)
2. Nc1nc(Cl)cc(NCC2(CO)CCC(OCc3ccccc3)C2)n1 (stereo unspecified)

## Output
> 100 µM (inactive)
27.7 µM (inactive)

Go through the list and state GI50 for each entry.
1. CCOC(=O)C(SCCO)C(C(=O)OCC)n1ccc(=O)[nH]c1=O (stereo unspecified)
2. CC(C)N(C(=O)C12C3(C(=O)OC(C)(C)C)C4C5(C#N)C3C1(C(=O)OC(C)(C)C)C5C42C(=O)OC(C)(C)C)C(C)C (stereo unspecified)
3. CCOC(=N)n1c(=O)n(C2=NCCN2)c2ccccc21
4. CC(Cc1ccc2c(c1)OCO2)N(C)C(=O)C1=CCN(C)CC1 (stereo unspecified)
5. CC/C=C/C[C@H](O[Si](C)(C)C(C)(C)C)[C@H]1C[C@H]2O[C@H]([C@@H](O)C#C[Si](C)(C)C)C[C@H]2O1
6. CCC1CCC2c3c([nH]c4ccccc34)C3C(=O)N(c4ccc(OC)cc4)C(=O)C3C2C1 (stereo unspecified)
7. COC(=O)[C@]12CC[C@H]3CN(C(=O)OCc4ccccc4)[C@H]([C@H]31)[C@H](c1ccccc1)N2

## Output
> 100 µM (inactive)
> 100 µM (inactive)
> 100 µM (inactive)
> 100 µM (inactive)
14.7 µM (inactive)
> 100 µM (inactive)
> 100 µM (inactive)
